- Target Of Assay: RAD52 (Homo sapiens, UniProt P43351)
- Construct: made in house
- Sequence (P43351 whole entry): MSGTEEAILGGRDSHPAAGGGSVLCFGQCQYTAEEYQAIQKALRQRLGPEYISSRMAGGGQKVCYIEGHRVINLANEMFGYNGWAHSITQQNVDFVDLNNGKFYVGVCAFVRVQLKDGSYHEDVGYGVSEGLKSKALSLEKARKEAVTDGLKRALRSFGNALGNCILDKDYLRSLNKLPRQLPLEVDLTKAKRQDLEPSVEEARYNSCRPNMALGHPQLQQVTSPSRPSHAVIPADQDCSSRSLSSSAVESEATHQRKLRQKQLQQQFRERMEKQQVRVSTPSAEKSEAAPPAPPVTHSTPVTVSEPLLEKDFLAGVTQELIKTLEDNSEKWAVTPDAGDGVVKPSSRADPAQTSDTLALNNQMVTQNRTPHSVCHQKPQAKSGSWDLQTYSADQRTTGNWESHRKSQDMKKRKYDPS
- Assay Name: Fluorescence-quenching assay for RAD52 ssDNA annealing (HTS)
- Type: biochemical
Readout Label: IC50 (µM)
Dear colleague, please return just the value in µM, with no unit written.

Write down the reported IC50 of "CCCCN(CC)CCNC(=O)c1cc2c(-c3ccc(Cl)cc3)nn(C)c2s1" , test system: RAD52 (Homo sapiens, UniProt P43351). 6.8

Try this molecule too: "CN1CCN(CCCNC(=O)c2cc3c(-c4ccc(Cl)cc4)nn(C)c3s2)CC1" 2

Now the same for "Cc1ccc(-c2nc(C(=O)NCCCN3CCOCC3)cc3c2[nH]c2ccccc23)cc1" 2

Another molecule to check: "CCCN(CCC)CCCNC(=S)Nc1ccc2nc(N3CCN(C)CC3)cc(C)c2c1" 6

Try this molecule next: "CCCCN(CC)CCCNC(=S)Nc1ccc2nc(N3CCN(C)CC3)cc(C)c2c1" 2

What about "COc1ccccc1Nc1nc(NCCCO)c2ccccc2n1" ? 2.9

Field entry: "Cn1nc(-c2ccc(Cl)cc2)c2cc(C(=O)NCCCN3CCCCCC3)sc21" 4.1

Please answer likewise for "COc1ccc(-c2nc(C(=O)NCCCN3CCOCC3)cc3c2[nH]c2ccccc23)cc1OC" 4.8

Moving on to the next molecule: "CCN(CC)CCCN(Cc1cc2cc3c(cc2[nH]c1=O)OCO3)C(=S)NCCCN(C)C" 5.2

Same question, "Cn1nc(-c2ccc(Cl)cc2)c2cc(C(=O)NCCCN3CCCC3)sc21" this time 3.5
